Quick reference: CDC % Relative activity of the listed items.
molecular target: human Claudin18.2 (human); test: cell-based or functional assay
Just the number in %, nothing appended.

binder="chimeric 207F8G5 (antibody, human IgG1, kappa, V domains shown, chimeric, human IgG1/kappa constant regions; also called 207F8G5-Chimeric) VH: QAYLQQSGAELVRSGASVKMSCKASGFTFTSYNIHWVKQTPGQGLEWIGYISPGNGGSNYNLKFKDKATLTSATSSSTAYMQISSLTSEDSAVYFCATGRGFAYWGQGTLVTVSA VL: DIVMTQSPSSLTVTPGEKVTMSCKSSQSLFNSGNQKNYLIWYQQKPGQPPKLLIYRASTRDSGVPDRFTGSGSGTDFTLTISNVQAEDLAIYYCQNDYSYPLTFGAGTKLELKR" measurement=1300
binder="chimeric 253E4F7 (antibody, human IgG1, kappa, V domains shown, chimeric, human IgG1/kappa constant regions) VH: EIQLQQSGPELMKPGASVKMSCKASGYSFTSYYIHWVKQSHGKSLEWIGYIDPFNGGTRYNQKFEGKATLTVDKSSTTAYMHLSSLTSEDSTVYYCASLRFLAYWGQGTLVTVSA VL: DIVMTQSPSSLTVTAGEKVTMTCKSSQSLLNSGNQKNYLTWYQQKPGQPPKVLISRASTRQSGVPDRFTGSGSGTDFTLTISSVQAEDLAVYYCQNDYSYPLTFGAGTKLELKR" measurement=1320

// moving on: another record for CDC % Relative activity
Consider the binder chimeric 393C2C5 (antibody, human IgG1, kappa, V domains shown, chimeric, human IgG1/kappa constant regions; also called 393C2C5A) VH: DVQLVESGGGLVQPGGSRKLSCAASGFTFSSFGMHWVRQAPEKGLEWVAYISSGSSPIYYADTVKGRFTISRDNPKNTLFLQMTSLRSEDTAMYFCATFYYGNSFAYWGQGTLVTVSA VL: DIVMTQSPSSLTVTAGEKVTMSCKSSQTLLNSGNQKNYLTWYQQKSGQPPKLLIYWASTRESGVPDRFTGSGSGTDFTLTISSVQAEDLAVYYCQNAYSYPVTFGSGTKVELKR and give its recorded CDC % Relative activity.
2030
